assayed-target: Opiate Receptor, delta (OP1, DOP) (Homo sapiens)
Sequence (P41143 whole entry): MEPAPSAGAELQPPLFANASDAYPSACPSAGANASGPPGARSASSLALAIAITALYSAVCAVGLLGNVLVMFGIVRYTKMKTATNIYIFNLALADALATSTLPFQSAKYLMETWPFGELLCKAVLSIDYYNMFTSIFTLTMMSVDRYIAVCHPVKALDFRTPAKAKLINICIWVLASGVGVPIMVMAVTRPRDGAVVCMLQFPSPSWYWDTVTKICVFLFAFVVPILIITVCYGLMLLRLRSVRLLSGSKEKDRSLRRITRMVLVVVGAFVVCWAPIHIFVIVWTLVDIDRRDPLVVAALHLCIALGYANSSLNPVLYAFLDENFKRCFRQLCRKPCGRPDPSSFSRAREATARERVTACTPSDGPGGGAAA
assay-remarks: Radioligand competition binding, Opiate Receptor, delta (OP1, DOP), [3H]-naltrindole, CHO cells
Kindly supply the reported Ki values for the records listed here.
Answers are plain numbers, in nM.

{"compound": "CCN(CC)C(=O)c1ccc(C(c2cccc(O)c2)N2CCN(Cc3ccccc3)CC2)cc1 (stereo not shown) [N-benzyl-deallyl-demethyl-BW373U86]", "Ki (nM)": 0.47}
{"compound": "CCN(CC)C(=O)c1ccc(C(c2cccc(OCCOCCOCCOCCOCCOCCOCCOC)c2)N2CCN(Cc3ccccc3)CC2)cc1 (stereo not shown) [mPEG7-N-benzyl-deallyl-demethyl-BW373U86]", "Ki (nM)": 37.4}
{"compound": "C=CCN1C[C@H](C)N([C@H](c2ccc(C(=O)N(CC)CC)cc2)c2cccc(O)c2)C[C@H]1C [(+) BW373U86, reference compound]", "Ki (nM)": 0.354}

We now examine a further compound.
Task: Need Ki, item CCN(CC)C(=O)c1ccc(C(c2cccc(OCCOCCOCCOC)c2)N2CCN(Cc3ccccc3)CC2)cc1 (stereo not shown) [mPEG3-N-benzyl-deallyl-demethyl-BW373U86]
Result: 74.7

Origin of measurements: patent US9061026B2
